Task for the reader: assign each of the following compounds its reported Percent Effect.
# tested system: AMP-activated protein kinase, AMPK (Homo sapiens) (UniProt P54646+O43741+P54619+Q9UGJ0+Q9Y478+Q13131+Q9UGI9)
# test description: AMP-dependent Kinase enzyme assay. An in vitro enzyme assay that detects ADP turnover that is directly proportional to AMPK activity. This uses naive AMPK that is activated during the assay with MK-8722
# Format: functional
# Set-up: scale not given: direction of the effect not stated beside the values
# assay setup: 30 µM
One number for each entry, in %.

Sample answers from the record:
| compound | Percent Effect / % |
| --- | --- |
| CN(Cc1nc(N)c2ccccc2n1)C1CCCN(c2cccnn2)C1 (stereo not drawn) | -10.2 |
| COc1ccc(C(CNC(=O)Nc2cn[nH]c2)N2CCOCC2)cc1 (stereo not drawn) | 3.92 |

# input for lookup
## Input Fill in: Percent Effect of Cc1nn(C)c(Cl)c1C1CCCN1C(=O)c1cc[nH]n1 (stereo not drawn) is ___
## Output -1.34
